Test: in vitro
Conditions: African green monkey
endpoint-label: CC50 at 7 days

QUERY: So what does the record say about CC50 at 7 days for "NC(=O)c1ncn([C@@H]2O[C@H](CO)[C@@H](O)[C@H]2O)n1" ?
RESULT: > 100 µg/mL

* * *

Assay: in vitro
Details: human
endpoint-label: CC50 at 7 days (µg/mL)
Return type: number; implicit unit µg/mL.

QUERY: Recorded CC50 at 7 days of "NC(=O)c1ncn([C@@H]2O[C@H](CO)[C@@H](O)[C@H]2O)n1" , please.
RESULT: 76.4

* * *

Tested on: Vero cells
endpoint-label: CC50

QUERY: CC50 for O=C(/C=C/c1ccc(O)c(O)c1)OC1CC(O)(C(=O)O)CC(OC(=O)/C=C/c2ccc(O)c(O)c2)C1O (stereo not shown) ?
RESULT: > 400 µM
